The reported numbers originate from PubChem BioAssay (NCI).

Reported values of GI50 for individual entries
- System: K-562 leukemia
- experiment notes: NCI tumour cell line growth inhibition, 48 h

Lab book: GI50 of "C/C1=C\C/C=C(\C)[C@H]2CC(CC/C(C)=C/CC1)[C@](C)(C=O)O2" noted as 54.8 µM

get_value(item= "O=[N+]([O-])[O-].O=[N+]([O-])[O-].[Au].[Au].c1ccc([P-]c2ccccc2)cc1.c1ccc([P-]c2ccccc2)cc1" , readout=GI50) returns 23.6 µM

Query COc1cc(C2=NN(c3ccc(S(N)(=O)=O)cc3)C(c3ccc(Cl)cc3)C2)cc(OC)c1OC (stereo not drawn) yields GI50 of 5.67 µM
